Exercise: for every item that follows, state its recorded pIC50.
target: Full length (FL) 3-Phosphoglycerate Dehydrogenase (PHGDH) (Homo sapiens); construct: Full length (FL) 3-Phosphoglycerate Dehydrogenase (PHGDH) Diaphorase coupled assay (500 uM NAD); experiment: Full length (FL) PHGDH Diaphorase coupled assay (20 uM NAD); type: biochemical; conditions: full-length PHGDH 10 nM, 30° C. 60 minutes, resorufin fluorescence
Sequence (O43175 whole entry): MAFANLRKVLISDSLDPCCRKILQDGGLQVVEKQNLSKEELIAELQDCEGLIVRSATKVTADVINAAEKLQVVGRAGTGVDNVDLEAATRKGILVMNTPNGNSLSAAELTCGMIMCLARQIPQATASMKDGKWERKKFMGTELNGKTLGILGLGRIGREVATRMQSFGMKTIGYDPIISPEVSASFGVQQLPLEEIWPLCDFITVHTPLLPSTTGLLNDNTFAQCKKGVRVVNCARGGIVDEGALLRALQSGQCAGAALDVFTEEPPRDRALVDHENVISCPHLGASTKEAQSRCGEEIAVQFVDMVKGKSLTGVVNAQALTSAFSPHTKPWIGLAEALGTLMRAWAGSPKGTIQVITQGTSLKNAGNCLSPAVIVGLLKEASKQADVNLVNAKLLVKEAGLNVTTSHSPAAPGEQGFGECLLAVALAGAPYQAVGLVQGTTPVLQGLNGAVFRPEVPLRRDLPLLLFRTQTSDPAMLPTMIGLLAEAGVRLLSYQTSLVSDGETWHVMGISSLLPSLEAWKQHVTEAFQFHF
pIC50: −log10 of the molar value.

Enquiry: Please report the measured pIC50 for CC(=O)NS(=O)(=O)N1CCC(NC(=O)c2cc3c(Cl)c(Cl)ccc3n2C)(c2ccccc2)C1 (racemic)
Return: 5.30 to 6.00

Enquiry: Please report the measured pIC50 for Cn1c(C(=O)NC2(c3ccc(C(=O)O)cc3)CCOC2)cc2c(Cl)c(Cl)ccc21 (racemic) [I-137 e141]
Return: 6.00 to 9.00

Enquiry: Please report the measured pIC50 for Cn1c(C(=O)N[C@]2(c3ccc(C(=O)O)cc3)CCOC2)cc2c(Cl)c(Cl)ccc21 (single isomer, unassigned; peak 1) [I-133 or I-132 e146 peak 1]
Return: 6.00 to 9.00

Enquiry: Please report the measured pIC50 for Cn1c(C(=O)N[C@@]2(c3ccc(C(=O)O)cc3)CCOC2)cc2c(Cl)c(Cl)ccc21 (single isomer, unassigned; peak 2) [I-132 or I-133 e147 peak 2]
Return: 6.00 to 9.00

Enquiry: Please report the measured pIC50 for CC(=O)Nc1cccc(C2(NC(=O)c3cc4c(Cl)c(Cl)ccc4n3C)CCN(S(=O)(=O)NC(C)=O)CC2)c1 [I-153 e2]
Return: 5.00 to 5.30

Enquiry: Please report the measured pIC50 for CNC(=O)NS(=O)(=O)N1CCCC(NC(=O)c2cc3c(Cl)c(Cl)ccc3n2C)(c2cccc(C(=O)O)c2)C1 (racemic)
Return: 5.30 to 6.00

Quick request: pIC50 for each listed item, please.
1. Cn1c(C(=O)NC2(c3cccc(C#N)c3)CCOC2)cc2c(Cl)c(Cl)ccc21 (racemic)
2. CNC(=O)NS(=O)(=O)N1CCCC(NC(=O)c2cc3c(Cl)c(Cl)ccc3n2C)(c2cccc(C#N)c2)C1 (racemic)

Return:
1: 5.30 to 6.00; 2: 5.00 to 5.30

Quick request: pIC50 for each listed item, please.
1. Cn1c(C(=O)NC2(c3ccc(C#N)cc3)CCOC2)cc2c(Cl)c(Cl)ccc21 (racemic)
2. CC(=O)NS(=O)(=O)N1CCC(NC(=O)c2cc3c(Cl)c(Cl)ccc3n2C)(c2cccc(C(=O)O)c2)CC1
3. CC(=O)NS(=O)(=O)N1CCC(NC(=O)c2cc3c(Cl)c(Cl)ccc3n2C)(c2cccc(C#N)c2)CC1
4. CC(=O)NS(=O)(=O)N1CCC(NC(=O)c2cc3c(Cl)c(Cl)ccc3n2C)(c2cccc(N)c2)CC1
5. CC(=O)NS(=O)(=O)N1CCC(NC(=O)c2cc3c(Cl)c(Cl)ccc3n2C)(c2ccc(C(=O)O)cc2)CC1

Return:
1. 5.30 to 6.00
2. 5.30 to 6.00
3. 5.00 to 5.30
4. 5.00 to 5.30
5. 6.00 to 9.00

Quick request: pIC50 for each listed item, please.
1. Cn1c(C(=O)NC2(c3ccc(CC(=O)O)cc3)CCOC2)cc2c(Cl)c(Cl)ccc21 (racemic)
2. CNC(=O)NS(=O)(=O)N1CCCC(NC(=O)c2cc3c(Cl)c(Cl)ccc3n2C)(c2ccc(C(=O)O)cc2)C1 (racemic)
3. Cn1c(C(=O)NC2(c3cccc(C(N)=O)c3)CCOC2)cc2c(Cl)c(Cl)ccc21 (racemic)
4. Cn1c(C(=O)NC2(c3ccc(C(N)=O)cc3)CCOC2)cc2c(Cl)c(Cl)ccc21 (racemic)
5. Cn1c(C(=O)NC2(c3ccc(Br)cc3)CCOC2)cc2c(Cl)c(Cl)ccc21 (racemic)
6. Cn1c(C(=O)NC2(c3ccccc3)CCN(S(=O)(=O)Nc3cnccn3)CC2)cc2c(Cl)c(Cl)ccc21
7. Cn1c(C(=O)NC2(c3ccc(-c4nnn[nH]4)cc3)CCOC2)cc2c(Cl)c(Cl)ccc21 (racemic)
8. CC(=O)NS(=O)(=O)N1CCC(NC(=O)c2cc3c(Cl)c(Cl)ccc3n2C)(c2cccc(CO)c2)CC1

Return:
1: 6.00 to 9.00; 2: 6.00 to 9.00; 3: 5.30 to 6.00; 4: 5.30 to 6.00; 5: 5.30 to 6.00; 6: 5.30 to 6.00; 7: 6.00 to 9.00; 8: 5.00 to 5.30

Quick request: pIC50 for each listed item, please.
1. CC(=O)NS(=O)(=O)N1CC(NC(=O)c2cc3c(Cl)c(Cl)ccc3n2C)(c2ccccc2)C1
2. CC(=O)Nc1cccc(C2(NC(=O)c3cc4c(Cl)c(Cl)ccc4n3C)CCN(C(C)=O)CC2)c1
3. CNC(=O)NS(=O)(=O)N1CCCC(NC(=O)c2cc3c(Cl)c(Cl)ccc3n2C)(c2cccc(CO)c2)C1 (racemic)
4. CN1CCC(NC(=O)c2cc3c(Cl)c(Cl)ccc3n2C)(c2ccc(C(=O)O)cc2)C1 (racemic)
5. CNC(=O)NS(=O)(=O)N1CCCC(NC(=O)c2cc3c(Cl)c(Cl)ccc3n2C)(c2ccccc2)C1 (racemic)

Return:
1: 5.00 to 5.30; 2: 5.00 to 5.30; 3: 5.00 to 5.30; 4: 6.00 to 9.00; 5: 5.00 to 5.30

Enquiry: Please report the measured pIC50 for Cn1c(C(=O)NC2(c3ccc(C(=O)O)cc3)CCOC2)cc2c(Cl)c(Cl)ccc21 (racemic) [I-136 e145]
Return: 6.00 to 9.00
